Recorded MIC, one value per entry.
- Test system: Klebsiella pneumoniae
- Experimental Details: Antimicrobial activity against Klebsiella pneumoniae isolate 135 transconjugant expressing aac(6')-Ib-cr gene
- Assay type: functional

For orientation, consider the following solved cases.
COc1c(N2C[C@@H]3CCCN[C@@H]3C2)c(F)cc2c(=O)c(C(=O)O)cn(C3CC3)c12 [MOXIFLOXACIN]
1 µg/mL
CCn1cc(C(=O)O)c(=O)c2ccc(C)nc21 [NALIDIXIC ACID]
32 µg/mL
NC[C@H]1O[C@H](O[C@H]2[C@H](O)[C@@H](O[C@H]3O[C@H](CO)[C@@H](O)[C@H](N)[C@H]3O)[C@H](N)C[C@@H]2N)[C@H](N)C[C@@H]1O [TOBRAMYCIN]
> 16 µg/mL
CO/N=C(\C(=O)N[C@@H]1C(=O)N2C(C(=O)O)=C(COC(C)=O)CS[C@H]12)c1csc(N)n1 [CEFOTAXIME]
256 µg/mL
CCn1cc(C(=O)O)c(=O)c2cc(F)c(N3CCNCC3)cc21 [NORFLOXACIN]
8 µg/mL
O=C(O)c1cn(C2CC2)c2cc(N3CCNCC3)c(F)cc2c1=O [CIPROFLOXACIN]
1 µg/mL

--- query ---
Recorded MIC for CC(C)(O/N=C(\C(=O)N[C@@H]1C(=O)N2C(C(=O)[O-])=C(C[n+]3ccccc3)CS[C@H]12)c1csc(N)n1)C(=O)O [CEFTAZIDIME] , please?
> 32 µg/mL

Recorded values, source ChEMBL document CHEMBL1649439.
